Target: SARS-COV-2 spike, Gamma variant (P.1) (SARS-COV-2, UniProt P0DTC2 14-1273)
Assay: cell-based or functional assay
// assign true if EC50, neutralization of spike pseudotyped virus falls strictly below 4 nM, else false (ties count as false)

Field: below-cutoff. Rule: recorded EC50, neutralization of spike pseudotyped virus strictly less than 4 nM. Subject: BP2H9 Nb-huFc (Fc fusion) EVQLQASGGGFVQPGGSLRLSCAASGQTFTHVPMGWFRQAPGKEREFVSAISDTSGFETYYADSVKGRFTISRDNSKNTVYLQMNSLRAEDTATYYCAWAYDQFNWNYWGQGTQVTVSS
true

Field: below-cutoff. Rule: recorded EC50, neutralization of spike pseudotyped virus strictly less than 4 nM. Subject: KP2C6 Nb-huFc (Fc fusion) EVQLQASGGGFVQPGGSLRLSCAASGRTFTSFHMGWFRQAPGKEREFVSAISSGDDGTQYYADSVKGRFTISRDNSKNTVYLQMNSLRAEDTATYYCAAYTTTTVPQYWGQGTQVTVSS
false
